- test_system: human CB1 receptor (Homo sapiens, UniProt P21554)
- Sequence (P21554 whole entry): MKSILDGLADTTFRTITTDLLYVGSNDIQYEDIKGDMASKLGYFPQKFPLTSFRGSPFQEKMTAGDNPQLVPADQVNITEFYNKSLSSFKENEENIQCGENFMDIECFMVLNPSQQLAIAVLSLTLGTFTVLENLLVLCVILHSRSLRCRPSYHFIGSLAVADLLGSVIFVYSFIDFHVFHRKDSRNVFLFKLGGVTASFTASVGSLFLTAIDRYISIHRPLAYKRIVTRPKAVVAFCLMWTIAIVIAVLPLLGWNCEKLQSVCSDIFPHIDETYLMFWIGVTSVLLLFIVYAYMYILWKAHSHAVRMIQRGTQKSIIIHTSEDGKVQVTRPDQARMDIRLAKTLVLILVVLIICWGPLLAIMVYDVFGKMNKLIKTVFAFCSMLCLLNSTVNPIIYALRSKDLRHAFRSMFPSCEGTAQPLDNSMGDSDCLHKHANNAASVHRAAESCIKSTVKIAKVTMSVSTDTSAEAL
- assay_protocol: Radioligand binding assays at human CB1 receptor
- details: read-out: Binding affinities pKi (converted)
Classify: yes when Ki is strictly less than 30 µM; no when Ki is not.

Answered cases to consult:
O=c1c2nccnc2nc(SCc2cccc(F)c2)n1Cc1cccs1 [Compound 12] = no
CC(=O)N1CCc2c(sc3c2c(=O)n(Cc2ccccc2)c(=O)n3Cc2c(F)cccc2Cl)C1 [Compound 7] = yes
Cc1cccn2c(=O)c(/C=C3\SC(=S)N(Cc4ccco4)C3=O)c(NCC3CCCO3)nc12 (centres unmarked) [Compound 8] = yes

Please let me know if O=C(NC1CCCCCC1)c1cc(-c2cccs2)nn1Cc1ccc(F)cc1 [Compound 15] shows Ki below 30 µM. yes

Lab log: compare recorded Ki with 30 µM; is it strictly lower for COc1ccccc1Nc1sc(C(=O)c2ccccc2)c(N)c1S(=O)(=O)c1ccccc1 [Compound 3] ? yes

###

- test_system: UniProt:P34972
- Sequence (P34972 whole entry): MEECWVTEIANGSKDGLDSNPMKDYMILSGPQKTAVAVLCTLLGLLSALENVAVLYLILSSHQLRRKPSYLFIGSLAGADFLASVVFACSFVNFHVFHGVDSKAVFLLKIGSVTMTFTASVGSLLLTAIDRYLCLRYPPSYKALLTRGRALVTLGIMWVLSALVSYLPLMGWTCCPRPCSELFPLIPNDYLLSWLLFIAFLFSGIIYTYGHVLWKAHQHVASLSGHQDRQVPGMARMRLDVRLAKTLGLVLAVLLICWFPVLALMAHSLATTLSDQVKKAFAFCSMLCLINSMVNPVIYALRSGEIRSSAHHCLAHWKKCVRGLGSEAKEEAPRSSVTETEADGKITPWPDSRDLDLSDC
- assay_protocol: Radioligand binding assays at human CB2 receptor ([3H]-CP55940)
- details: [3H]-CP55940 0.8 nM, 90 min, 30 °C, read-out: Binding Affinities pKi (converted)
# Lookup of reported Ki keyed by entry
Unit µM implied. Number only.

Some solved entries appear below for comparison.
CC(=O)N1CCc2c(sc3c2c(=O)n(Cc2ccccc2)c(=O)n3Cc2c(F)cccc2Cl)C1 [Compound 7] = 6.61
COc1ccc(-n2c(=O)c3c4c(sc3n(Cc3ccc(F)cc3)c2=O)CN(C(C)=O)CC4)cc1 [Compound 6] = 7.08

Lab note: measured Ki of O=C(NC1CCCCCC1)c1cc(-c2cccs2)nn1Cc1ccc(F)cc1 [Compound 15] was 1.74

// recorded Ki for O=C(CSc1nc2nccnc2c(=O)n1Cc1ccc2c(c1)OCO2)Nc1ccc(F)cc1 [Compound 5] : 38

Item: CCCCNC(=O)Cn1c(=O)n(-c2cccc(C(F)(F)F)c2)c(=O)c2sccc21 [Compound 10] | Ki: 17.8

Ki in this record for Cc1ccc(C)c(CNC(=O)c2cc(-c3cccs3)nn2Cc2ccc(F)cc2)c1 [Compound 14] : 17.8

// recorded Ki for Cc1cc(S(=O)(=O)c2cc3cc(C(C)(C)C)cc(O)c3oc2=O)ccc1F [Compound 9] : 23.4

# Ki of COc1ccccc1Nc1sc(C(=O)c2ccccc2)c(N)c1S(=O)(=O)c1ccccc1 [Compound 3] = 4.9

Form field Ki, entry CC(=O)Nc1c2n(c3ccc(F)cc13)CC(C)(C(=O)NC1CCCC1)N(Cc1ccc(F)cc1)C2=O (stereo not drawn) [Compound 13] : 33.1

Field Ki (entry Cc1cccn2c(=O)c(/C=C3\SC(=S)N(Cc4ccco4)C3=O)c(NCC3CCCO3)nc12 (stereo not drawn) [Compound 8] ) reads 0.219

###

Listing of recorded pIC50 by entry.
- test_system: human CB1 receptor (Homo sapiens, UniProt P21554)
- assay_protocol: cAMP functional assay against CB1 receptor
- Format: cell-based
- details: CB1 receptor, cAMP functional assay; read-out: antagonistic activities against the CB1 receptor
pIC50: −log10 of the molar value.

Use these answered entries as a reference point.
Cc1cccn2c(=O)c(/C=C3\SC(=S)N(Cc4ccco4)C3=O)c(NCC3CCCO3)nc12 (stereo not drawn) = < 4.70
COc1ccccc1Nc1sc(C(=O)c2ccccc2)c(N)c1S(=O)(=O)c1ccccc1 = < 4.70

Now look at this entry.
The recorded pIC50 for entry O=c1c2nccnc2nc(SCc2cccc(F)c2)n1Cc1cccs1 equals < 4.70
